# TEST_TARGET: human M1 muscarinic acetylcholine receptor (Homo sapiens, UniProt P11229)
# Sequence (P11229 1-460): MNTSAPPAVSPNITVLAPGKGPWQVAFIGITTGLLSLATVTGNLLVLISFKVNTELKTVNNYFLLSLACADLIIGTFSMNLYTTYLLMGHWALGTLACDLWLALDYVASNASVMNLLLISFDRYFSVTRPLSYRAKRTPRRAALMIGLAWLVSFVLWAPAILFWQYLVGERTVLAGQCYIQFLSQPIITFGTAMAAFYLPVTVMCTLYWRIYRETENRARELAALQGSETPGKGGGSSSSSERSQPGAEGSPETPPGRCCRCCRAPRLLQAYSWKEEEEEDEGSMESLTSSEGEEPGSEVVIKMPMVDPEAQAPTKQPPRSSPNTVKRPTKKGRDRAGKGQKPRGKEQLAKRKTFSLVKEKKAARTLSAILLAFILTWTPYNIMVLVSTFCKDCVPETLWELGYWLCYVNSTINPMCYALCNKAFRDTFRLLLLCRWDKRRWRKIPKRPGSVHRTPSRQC
# TEST_METHOD_NOTES: cell-based
# MEASUREMENT_SETUP: pEC50 of PI hydrolysis
READOUT_TYPE: EC50 (µM)
Express the result in µM but write the number alone.

So for `O=C1CCCN1CC#CCN1CCCC1` , the logged EC50 turned out to be 0.2

Origin of values: paper PMC3009740
